Give measured melting point for each item. Keep answers brief.

Look over these answered cases.
Cn1c(=O)c(-c2ccc(O)cc2)cc2cc(C(C)(C)C)cc(-c3ccc[nH]c3=O)c21
> 300 °C
CC(C)(C)c1cc(-c2ccc[nH]c2=O)c2c(=O)[nH]c(-c3ccc(NS(C)(=O)=O)cc3)cc2c1
> 300 °C
Cn1c(=O)c(-c2ccccc2)cc2cc(C(C)(C)C)cc(-c3ccc[nH]c3=O)c21
290 to 292 °C
CC(C)(C)c1cc(-c2ccc[nH]c2=O)c2[nH]c(=O)ccc2c1
> 300 °C

Could I get melting point for every one of these entries?
1. CC(C)(C)c1cc(-c2ccc[nH]c2=O)c2[nH]c(=O)c(-c3ccc(S(N)(=O)=O)cc3)cc2c1
2. Cn1c(=O)c(-c2ccc(NS(C)(=O)=O)cc2)cc2cc(C(C)(C)C)cc(-c3ccc[nH]c3=O)c21
3. CC(C)(C)c1cc(-c2ccc[nH]c2=O)c2oc(=O)c(-c3ccc(NS(C)(=O)=O)cc3)cc2c1

Result:
["250 to 252 °C", "> 300 °C", "225 to 227 °C"]
